assay: Acute toxicity test, oral administration to rats; conditions: rat, in vivo, orally administered
Result type: LD50

O=C1NC(=O)C(Cc2cccc3c2ccn3Cc2ccccc2)S1 (centres unmarked) = ≥ 2000 mg/kg

Recorded LD50 of O=C1NC(=O)C(Cc2cccc3c2ccn3Cc2ccc(F)cc2)S1 (centres unmarked) , please.
≥ 2000 mg/kg
